EXPERIMENTAL DETAILS: chemical genetic growth profiling, strain panel (AID 1159580);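 note: tested at 20 µM; growth read once vehicle control cultures reached saturation at 30 °C; 1 = growth at the plate median or of vehicle wells; lower values mean less growth of the strain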
PROTOCOL CONDITIONS: S. cerevisiae deletion strains, growth OD, locus YGL173C, strain kem1
Hit rate of the full screen: of about 5,500 compounds, about 2,000 (36%) were called active. Inconclusive results (about 18%) are left out. Cut-off read from the data, not from the text of the source: active = normalized growth mostly below about 0.91 (no sharp cut-off); inconclusive = no clear call, values can overlap the other calls; inactive = mostly above about 0.92. This is one part of the list.
The reply should be one of these categories: active, inactive

Please review the entries below; each comes with its answer.
COMPOUND: COc1c2occc2cc2ccc(=O)oc12
CATEGORY LABEL: inactive
--
COMPOUND: COc1c(O)cc(O)cc1O
CATEGORY LABEL: inactive

# input For CC1=C(C(=O)O)N2C(=O)[C@@H](NC(=O)[C@H](N)C3=CCC=CC3)C2SC1 (some centres not stated) , what call appears in the results of this test?
# output inactive

# input Entry O=C(CCCN1CC=C(n2c(=O)[nH]c3ccccc32)CC1)c1ccc(F)cc1 : call = ?
# output inactive

====

EXPERIMENTAL DETAILS: chemical genetic growth profiling, strain panel (AID 1159580)
PROTOCOL CONDITIONS: S. cerevisiae deletion strains, growth OD, locus YLR027C, strain aat2, active compounds read low
Out of some 5,500 compounds screened, about 2,000 (36%) were called active. Another 18% or so got no clear call; they are omitted. Some of the results follow.
I'd appreciate it if you could supply normalized growth values for the items below.
Answers are plain numbers.

// worked examples, normalized growth included
COMPOUND: CC(=O)c1ccc2c(c1)N(CCCN(C)C)c1ccccc1S2
OBS VALUE: 0.995
//
COMPOUND: COc1cc(OC)c(C(C)=O)c(O)c1C
OBS VALUE: 0.962
//
COMPOUND: N#C/C(=C\c1ccc(O)cc1)C(=O)O
OBS VALUE: 1.01
//
COMPOUND: CC(=O)OCC(=O)[C@@]1(O)CCC2C3CCC4=CC(=O)CC[C@]4(C)[C@@]3(F)[C@@H](O)C[C@@]21C (stereo not given in full)
OBS VALUE: 1.02
//
COMPOUND: CC1=C2CCC3C(CC[C@]4(C)C(=O)CCC34)[C@@]2(C)CCC1=O (stereo not given in full)
OBS VALUE: 0.948

Please state, for each entry, its recorded normalized growth.
1. CN1CCN(C(c2ccccc2)c2ccccc2)CC1
2. COc1cc2c(cc1-c1coc3c4c(c(OC)cc3c1=O)OC(C)(C)C=C4)OCO2
3. C[C@]12CCC3C(CC[C@H]4C[C@@H](O)CC[C@]34C)C1CCC2=O (stereo not given in full)

# output
[0.985, 0.992, 0.939]

For every listed record, write down its normalized growth.
1. O=c1[nH]c2ccccc2n1C1CCN(CCCC(c2ccc(F)cc2)c2ccc(F)cc2)CC1
2. O=C1OC(=O)C2C3CCC(O3)C12 (stereo not given)

# output
0.927
0.994

====

EXPERIMENTAL DETAILS: chemical genetic growth profiling, strain panel (AID 1159580)
PROTOCOL CONDITIONS: S. cerevisiae deletion strains, growth OD, locus YER155C, strain BEM2 (second series), active compounds read low
About 2,000 (36%) of roughly 5,500 compounds were called active. About 18% were inconclusive and are not listed. The list shows a part of the results.
Hi! Could you tag entries with normalized growth below 1 as 1 (yes), and those at or above as 0 (no)? Much appreciated.

Solved cases (3 shown):
COMPOUND: Fc1ccc(C(c2ccc(F)cc2)N2CCN(C/C=C/c3ccccc3)CC2)cc1
CATEGORY LABEL: 1 (yes)
//
COMPOUND: COc1cc(OC)c(C(C)=O)c(O)c1C
CATEGORY LABEL: 1 (yes)
//
COMPOUND: COc1cc(O)c(C)c(O)c1
CATEGORY LABEL: 0 (no)

# input Please state whether normalized growth is below 1 for CC(=O)O[C@@H]1CC2C(C)(C)[C@H](O)C[C@H](O)[C@]2(C)C2CC[C@@]3(C)C(=CC(=O)O[C@H]3c3ccoc3)[C@@]21C (some centres not stated)
# output 0 (no)

# input Problem: For the compound O=C1c2ccccc2C(=O)c2c(O)c(O)cc(O)c21 , is normalized growth under 1?
# output 1 (yes)

# input Confirm or reject: normalized growth of O=C(O)c1cccc(O)c1O lies strictly below 1
# output 0 (no)

====

Provide the reported normalized growth of each item.
EXPERIMENTAL DETAILS: chemical genetic growth profiling, strain panel (AID 1159580);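 note: tested at 20 µM; growth read once vehicle control cultures reached saturation at 30 °C; 1 = growth at the plate median or of vehicle wells; lower values mean less growth of the strain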
PROTOCOL CONDITIONS: S. cerevisiae deletion strains, growth OD, locus YER002W, strain NOP16, active compounds read low
The whole screen tested about 5,500 compounds, of which about 2,000 (36%) were called active. Inconclusive results (about 18%) are left out. The list shows a part of the results.
Give bare numbers.

Field: example entries. Status: answers known.
COMPOUND: COc1ccc2c3c1O[C@H]1C(=O)CC[C@@]4(O)C(C2)N(CC2CC2)CCC314 (stereo partly specified)
normalized growth: 0.991
//
COMPOUND: C[N+](C)(C)CC=O
normalized growth: 0.989
//
COMPOUND: C[N+](C)(C)CC#CCN1CCCC1=O
normalized growth: 0.985

Parameters: items (list). Returns: normalized growth for each item.
1. C[C@]12C=CC(=O)C=C1CC[C@H]1[C@@H]3C[C@@H](O)[C@](O)(C(=O)CO)[C@@]3(C)C[C@H](O)[C@@]12F
2. NCCNC(=O)c1ncsc1-c1cccc(F)c1
3. C[C@]12CC[C@@H](O)CC1CC[C@@H]1[C@@H]2CC[C@]2(C)C(=O)CC[C@@H]12 (stereo partly specified)

# output
1. 1.01
2. 1
3. 1.02

State recorded normalized growth for all listed compounds.
1. O=C1C=CC(=O)C=C1
2. Cc1nccc2c1[nH]c1ccccc12
3. S=C(S)N1CCCC1
4. COc1ccc(Cc2nccc3cc(OC)c(OC)cc23)cc1OC
5. C=CCN1CCC23c4c5ccc(O)c4O[C@H]2C(=O)CC[C@@]3(O)C1C5 (stereo partly specified)

# output
1: 1; 2: 0.991; 3: 0.992; 4: 0.994; 5: 0.994

====

EXPERIMENTAL DETAILS: chemical genetic growth profiling, strain panel (AID 1159580);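 note: tested at 20 µM; growth read once vehicle control cultures reached saturation at 30 °C; 1 = growth at the plate median or of vehicle wells; lower values mean less growth of the strain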
PROTOCOL CONDITIONS: S. cerevisiae deletion strains, growth OD, locus YHR030C, strain SLT2
Among all 5,500 compounds or so, about 2,000 (36%) were called active. Roughly 18% stayed inconclusive and do not appear here. No stated cut-off is given here; in the data, active means normalized growth mostly below about 0.91 (no sharp cut-off); inconclusive means no clear call, values can overlap the other calls; inactive means mostly above about 0.92. Some of the results follow.
Respond using exactly one of the listed classes: active, inactive

Solved entries:
COMPOUND: Cc1ccc(S(=O)(=O)Oc2cc(=O)n(C)c3ccccc23)cc1
CATEGORY LABEL: inactive
--
COMPOUND: O=C1CCC(=O)N1CNc1ccccc1OC(F)(F)F
CATEGORY LABEL: inactive
--
COMPOUND: CSC(=Nc1ccc(C(C)C)cc1)NC#N
CATEGORY LABEL: inactive
--
COMPOUND: CCSC(SCC)[C@H](O)[C@@H](O)[C@H](O)CO
CATEGORY LABEL: inactive
--
COMPOUND: CCCCCN=C(N)N/N=C\c1c[nH]c2ccc(OC)cc12
CATEGORY LABEL: inactive
--
COMPOUND: Cc1cccc(N2C(=O)C3C4C=CC(C4)C3C2=O)n1 (stereo not drawn)
CATEGORY LABEL: inactive
--
COMPOUND: O=C(N/N=C\c1cc(Cl)cc(Cl)c1O)c1ccccc1Oc1ccccc1
CATEGORY LABEL: inactive

Consider now this further compound.
# input Give the logged outcome of this assay for the following compound: CC(C)(C)c1ccc(C(=O)N/N=C\c2cc(Cl)cc(Cl)c2O)cc1
# output active

====

EXPERIMENTAL DETAILS: chemical genetic growth profiling, strain panel (AID 1159580);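 note: tested at 20 µM; growth read once vehicle control cultures reached saturation at 30 °C; 1 = growth at the plate median or of vehicle wells; lower values mean less growth of the strain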
PROTOCOL CONDITIONS: S. cerevisiae deletion strains, growth OD, locus YJR043C, strain POL32, active compounds read low
Hit rate of the full screen: of about 5,500 compounds, about 2,000 (36%) were called active. About 18% were inconclusive and are not listed. This is one part of the list.
Give normalized growth for every item shown.
One number for each entry.

# example entries with known answers
COMPOUND: Nc1ncnc2c1ncn2[C@@H]1O[C@H](CO)[C@@H](O)[C@@H]1O
MEASURED PARAMETER: normalized growth
OBS VALUE: 1.02
//
COMPOUND: NC(=S)c1ccc2nonc2c1
MEASURED PARAMETER: normalized growth
OBS VALUE: 1.02
//
COMPOUND: COc1ccccc1N1CCN(S(=O)(=O)c2ccc(C(F)(F)F)cc2)CC1
MEASURED PARAMETER: normalized growth
OBS VALUE: 0.998
//
COMPOUND: CCOC(=O)CC1=Nn2c(nnc2-c2cc(Cl)cc(Cl)c2)SC1
MEASURED PARAMETER: normalized growth
OBS VALUE: 0.989
//
COMPOUND: CC1(C)C[C@@H]2C(=O)CC[C@H]3O[C@]3(C)CC[C@H]21
MEASURED PARAMETER: normalized growth
OBS VALUE: 1
//
COMPOUND: CSCCC(NC=O)C(=O)NC(CC(C)C)C(=O)NC(Cc1ccccc1)C(=O)O (configuration not stated)
MEASURED PARAMETER: normalized growth
OBS VALUE: 0.992

List reported normalized growth for each of these compounds:
1. CC(O)CNc1ccc(C(F)(F)F)cc1[N+](=O)[O-] (configuration not stated)
2. O=C(c1ccc(Cl)cc1)N1CCN(c2ccc(C(F)(F)F)cn2)CC1
3. COC(=O)c1csc2c(C(F)(F)F)cc(N3CCN(S(=O)(=O)c4ccc(C)cc4)CC3)nc12
4. Cc1cc(N=CNO)c2ccccc2n1

# output
1: 1.02; 2: 0.993; 3: 1.04; 4: 0.959

Dear reader, for each entry below, please note its normalized growth.
1. COC(=O)c1c(OC)ccc(N=CNO)c1OC
2. CC(=O)CC(C)=Nc1ccc(C(F)(F)F)cc1

# output
1: 1; 2: 1.01

Values from PubChem BioAssay AID1159580
